# system_name: T1, TNFR1 (Homo sapiens, UniProt P19438)
# T1 chain: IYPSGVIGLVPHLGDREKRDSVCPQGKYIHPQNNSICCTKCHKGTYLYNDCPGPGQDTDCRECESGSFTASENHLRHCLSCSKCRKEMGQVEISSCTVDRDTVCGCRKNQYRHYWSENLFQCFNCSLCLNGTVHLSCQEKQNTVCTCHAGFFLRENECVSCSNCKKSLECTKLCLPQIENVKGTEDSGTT
# method_summary: yeast display SC50
value_type: apparent Kd (screen) (nM)

Solved entries:
Param item = E95S (designed binder) MTLQELLREEALRRAEAEAFRYALELLAEKFPEQKEYLLDLAEEIESQIRSLSGVDVEDVRKFLDKEWAWVKELLAEHPAELAEVEAARAARLASLRAEVEAKVAA ; retrieve measured apparent Kd (screen).
0.539

Dear colleague, I am looking for the recorded apparent Kd (screen) of the following binder: E16V (designed binder) MTLQELLREEALRRAVAEAFRYALELLAEKFPEQKEYLLDLAEEIESQIRSLSGVDVEDVRKFLDKEWAWVKELLAEHPAELAEVEAARAARLAELRAEVEAKVAA
0.446

[I] Q4W (designed binder) MTLWELLREEALRRAEAEAFRYALELLAEKFPEQKEYLLDLAEEIESQIRSLSGVDVEDVRKFLDKEWAWVKELLAEHPAELAEVEAARAARLAELRAEVEAKVAA
[II] A42F (designed binder) MTLQELLREEALRRAEAEAFRYALELLAEKFPEQKEYLLDLFEEIESQIRSLSGVDVEDVRKFLDKEWAWVKELLAEHPAELAEVEAARAARLAELRAEVEAKVAA
Higher apparent Kd (screen) between I and II ? // return label of chosen record
II
